# Stated Conditions: buffer; pH 7.4; 200.0 µM
Below, each entry is listed alongside its reported solubility kinetic.
Express it in µg/mL; write the number only.

Please review the entries below; each comes with its answer.
Compound	Result Units	solubility kinetic
COc1cc(C)nc(NS(=O)(=O)c2ccccc2Cl)n1	µg/mL	38.9
O=C(Nc1ccc(F)cc1)C(Cc1ccccc1)n1cccc1 (stereo unspecified)	µg/mL	31.4
CC1(C)CC(=O)c2cnc(NC(=O)CSC(=S)N3CCCCC3)nc2C1	µg/mL	2.9
Cc1cc(C)nc(SCC(=O)c2ccc(C)c(C)c2)n1	µg/mL	19.3
Cc1cc(OCC(=O)OCC(=O)NCc2cccs2)ccc1Cl	µg/mL	14
Cc1ccc(S(=O)(=O)N2CCC[C@H]2C(=O)OCC(=O)Nc2ccc3c(c2)OCO3)cc1	µg/mL	34.3
COC(=O)c1cc(C(=O)NCC2CCCCC2)cc([N+](=O)[O-])c1	µg/mL	33.3

Exam item: Which solubility kinetic value is on record for Cc1cccc(-n2c(C)c(-c3ccccc3)[nH]c2=S)c1 ?
Marked response: 4.5

* * *

# Stated Conditions: buffer; pH 7.4; 200.0 µM
// reported solubility kinetic for each item listed
Dear colleague, please return just the value in µg/mL, with no unit written.

Example entries and their recorded answers appear below.
Compound	Data Value
Cc1ccc(N=Cc2c(O)n(C)c(=O)n(C)c2=O)cc1	6.1
COc1ccc([N+](=O)[O-])c(OC)c1C(=O)NC(=O)Nc1c(C)cccc1C	0.9
O=C(NCc1ccco1)/C(=C/c1ccco1)NC(=O)c1ccccc1	41.5
C=C(C)CNC(=O)c1ccc2nc(Cc3ccc(OC)cc3)oc2c1	40.5
O=[N+]([O-])c1cc(C(F)(F)F)ccc1NCCc1ccccn1	18.8

Below: the item to evaluate.
Exam item: Entry CCOc1ccc(C(C)=O)cc1CN1C(=O)C(=O)N(CC)C1=O : reported solubility kinetic = ?
Marked response: 41.5

* * *

# Stated Conditions: buffer; pH 7.4; 200.0 µM
Measurement Type: solubility kinetic (µg/mL)
Answer in µg/mL, number only, no unit symbol.

Record excerpt, results attached:
Molecule	Result Units	Data Value
CC1(C)C2CCC(C2)C1(C)NC(=O)C[N+](C)(C)C.[Cl-] (centres undefined)	µg/mL	43.2
Nc1c(Cl)nc(-c2ccccc2)nc1Cl	µg/mL	7.9
COc1cccc(C(=S)N2CCCC2)c1OC	µg/mL	35.3
Cc1cc(NC(=O)CSc2ncc(C(F)(F)F)cc2Cl)no1	µg/mL	1.2
Cc1cc(C)c(OCC(=O)OCC(=O)NC2CCCCCCC2)c(C)c1	µg/mL	23.5
CN1CCc2c1nc1ccccc1c2NC(=O)CN1CCCC1	µg/mL	28.9
CSCC[C@H](NC(=O)c1cccc(S(=O)(=O)N2CCCCC2)c1)c1nc2ccccc2[nH]1	µg/mL	1.6
COc1cc(/C=C/C(=O)OCC(=O)NCCCc2ccccc2)ccc1O	µg/mL	52.9
C=CCN1C(=O)c2ccc(C(=O)N3CCC(C(N)=O)CC3)cc2C1=O	µg/mL	47.9
CN(Cc1ccccc1F)c1ncnc2sccc12	µg/mL	33.7

Exam item: Look up solubility kinetic for this molecule: CC(=O)c1sccc1NC(=O)CC(C)(C)CC(=O)O
Marked response: 32.5

Exam item: Field entry: CC1CC(=O)C2=C(C1)Nc1nc3ccccc3n1C2c1cccnc1 (centres undefined)
Marked response: 3.3

Exam item: Subsequent entry: O=C(CN1CCCC1)Nc1cc(F)ccc1F
Marked response: 35.1

Exam item: Would you mind doing Cn1c(/C(C#N)=C(\O)c2cc(Cl)sc2Cl)nc2ccccc21 as well?
Marked response: 0.9

Exam item: Query Cc1ccn2cc(-c3cccc([N+](=O)[O-])c3)nc2c1 next
Marked response: 5.7
